// values below are reported viability at 100 µM
Tested on: HT-29
Test: HT-29 cell viability in co-culture with Jurkat T cells (flow cytometry count)
Format: cell-based, human
Conditions: Homo sapiens, HT-29/Jurkat T co-culture, IFN-γ stimulated, 24 h, read-out: percentage of living HT-29 cells relative to non-treated co-cultures
REPORTED_METRIC: viability at 100 µM (%)

>  <COMPOUND>
COc1ccc(C(OCCc2ccc(CCn3cc(-c4ccccc4Br)nn3)cc2)(c2ccccc2)c2ccc(OC)cc2)cc1

>  <REPORTED_RESULT>
52

$$$$
>  <COMPOUND>
OCCc1ccc(CCn2cc(-c3ccc(Br)cc3)nn2)cc1

>  <REPORTED_RESULT>
115

$$$$
>  <COMPOUND>
COc1ccc(-c2cn(CCc3ccc(CCOC(c4ccccc4)(c4ccc(OC)cc4)c4ccc(OC)cc4)cc3)nn2)cc1

>  <REPORTED_RESULT>
51

$$$$
>  <COMPOUND>
COc1ccc(C(OCCc2ccc(CCn3cc(-c4cccc(Br)c4)nn3)cc2)(c2ccccc2)c2ccc(OC)cc2)cc1

>  <REPORTED_RESULT>
68

$$$$
>  <COMPOUND>
OCCc1ccc(CCn2cc(-c3ccccc3)nn2)cc1

>  <REPORTED_RESULT>
79

$$$$
>  <COMPOUND>
COc1ccc(C(OCCc2ccc(CCn3cc(-c4ccc(Br)cc4)nn3)cc2)(c2ccccc2)c2ccc(OC)cc2)cc1

>  <REPORTED_RESULT>
111

$$$$
>  <COMPOUND>
COc1ccccc1-c1cn(CCc2ccc(CCO)cc2)nn1

>  <REPORTED_RESULT>
67

$$$$
>  <COMPOUND>
Cc1c(COc2ccc(CN3CCCCC3C(=O)O)cc2Br)cccc1-c1ccccc1 (stereo not drawn) [BMS-8, reference compound]

>  <REPORTED_RESULT>
34

$$$$
>  <COMPOUND>
OCCc1ccc(CCn2cc(-c3ccccc3Br)nn2)cc1

>  <REPORTED_RESULT>
97

$$$$
>  <COMPOUND>
COc1ccc(-c2cn(CCc3ccc(CCO)cc3)nn2)cc1

>  <REPORTED_RESULT>
145

$$$$
>  <COMPOUND>
OCCc1ccc(CCn2cc(-c3cccc(Br)c3)nn2)cc1

>  <REPORTED_RESULT>
104

$$$$
>  <COMPOUND>
COc1cccc(-c2cn(CCc3ccc(CCO)cc3)nn2)c1

>  <REPORTED_RESULT>
60

$$$$
>  <COMPOUND>
COc1ccc(C(OCCc2ccc(CCn3cc(-c4ccccc4OC)nn3)cc2)(c2ccccc2)c2ccc(OC)cc2)cc1

>  <REPORTED_RESULT>
153

$$$$
>  <COMPOUND>
COc1ccc(C(OCCc2ccc(CCn3cc(-c4cccc(OC)c4)nn3)cc2)(c2ccccc2)c2ccc(OC)cc2)cc1

>  <REPORTED_RESULT>
65

$$$$
>  <COMPOUND>
COc1ccc(C(OCCc2ccc(CCn3cc(-c4ccccc4)nn3)cc2)(c2ccccc2)c2ccc(OC)cc2)cc1

>  <REPORTED_RESULT>
81

$$$$
